The reported numbers originate from patent US20190092852A1.

- Measured on: T1, human IL-33 (R&D Systems, #3625-IL-010/CF) (human, UniProt O95760 112-270)
- T1 construct: also called hIL-33; huIL-33
- T1 sequence (looked up): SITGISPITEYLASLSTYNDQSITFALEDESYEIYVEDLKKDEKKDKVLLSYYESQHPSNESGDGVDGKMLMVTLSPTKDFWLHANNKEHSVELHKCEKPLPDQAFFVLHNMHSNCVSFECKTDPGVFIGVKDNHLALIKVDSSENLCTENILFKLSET
- Assay protocol: SPR Biacore T200, 25 C
Listing of entries alongside the reported Kd.
Give the value in nM but do not write nM after it.

Binder: H4H9659P (antibody, IgG4, V domains shown, also called RG7) VH: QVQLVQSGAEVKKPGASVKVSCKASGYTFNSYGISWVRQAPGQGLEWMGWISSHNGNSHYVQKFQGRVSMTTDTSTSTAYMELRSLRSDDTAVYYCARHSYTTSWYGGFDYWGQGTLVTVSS VL: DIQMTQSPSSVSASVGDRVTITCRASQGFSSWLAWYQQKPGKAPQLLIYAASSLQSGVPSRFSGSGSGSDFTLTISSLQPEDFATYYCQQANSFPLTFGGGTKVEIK
Recorded metric: Kd
Measure unit: nM
Reported value: 1.09
//
Binder: H4H9633P (antibody, IgG4, V domains shown, also called RG5) VH: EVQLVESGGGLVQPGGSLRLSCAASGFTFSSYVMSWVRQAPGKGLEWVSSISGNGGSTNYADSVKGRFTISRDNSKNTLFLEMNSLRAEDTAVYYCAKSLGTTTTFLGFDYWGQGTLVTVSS VL: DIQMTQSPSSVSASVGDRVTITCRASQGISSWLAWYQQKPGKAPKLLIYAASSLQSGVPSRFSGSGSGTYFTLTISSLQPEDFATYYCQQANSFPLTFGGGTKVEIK
Recorded metric: Kd
Measure unit: nM
Reported value: 0.941

Below: the item to evaluate.
## Input // query Kd value for entry H1M9566N (antibody, IgG1, V domains shown, also called RG2) VH: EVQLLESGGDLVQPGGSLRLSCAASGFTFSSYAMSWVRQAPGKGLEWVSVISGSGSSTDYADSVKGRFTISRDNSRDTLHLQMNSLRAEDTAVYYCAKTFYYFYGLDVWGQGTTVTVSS VL: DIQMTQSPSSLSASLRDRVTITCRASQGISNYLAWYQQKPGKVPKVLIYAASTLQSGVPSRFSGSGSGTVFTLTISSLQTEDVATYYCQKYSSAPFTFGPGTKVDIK
## Output 0.798
